- system_under_test: ATP-dependent translocase ABCB1 (Homo sapiens)
- Sequence (P08183 whole entry): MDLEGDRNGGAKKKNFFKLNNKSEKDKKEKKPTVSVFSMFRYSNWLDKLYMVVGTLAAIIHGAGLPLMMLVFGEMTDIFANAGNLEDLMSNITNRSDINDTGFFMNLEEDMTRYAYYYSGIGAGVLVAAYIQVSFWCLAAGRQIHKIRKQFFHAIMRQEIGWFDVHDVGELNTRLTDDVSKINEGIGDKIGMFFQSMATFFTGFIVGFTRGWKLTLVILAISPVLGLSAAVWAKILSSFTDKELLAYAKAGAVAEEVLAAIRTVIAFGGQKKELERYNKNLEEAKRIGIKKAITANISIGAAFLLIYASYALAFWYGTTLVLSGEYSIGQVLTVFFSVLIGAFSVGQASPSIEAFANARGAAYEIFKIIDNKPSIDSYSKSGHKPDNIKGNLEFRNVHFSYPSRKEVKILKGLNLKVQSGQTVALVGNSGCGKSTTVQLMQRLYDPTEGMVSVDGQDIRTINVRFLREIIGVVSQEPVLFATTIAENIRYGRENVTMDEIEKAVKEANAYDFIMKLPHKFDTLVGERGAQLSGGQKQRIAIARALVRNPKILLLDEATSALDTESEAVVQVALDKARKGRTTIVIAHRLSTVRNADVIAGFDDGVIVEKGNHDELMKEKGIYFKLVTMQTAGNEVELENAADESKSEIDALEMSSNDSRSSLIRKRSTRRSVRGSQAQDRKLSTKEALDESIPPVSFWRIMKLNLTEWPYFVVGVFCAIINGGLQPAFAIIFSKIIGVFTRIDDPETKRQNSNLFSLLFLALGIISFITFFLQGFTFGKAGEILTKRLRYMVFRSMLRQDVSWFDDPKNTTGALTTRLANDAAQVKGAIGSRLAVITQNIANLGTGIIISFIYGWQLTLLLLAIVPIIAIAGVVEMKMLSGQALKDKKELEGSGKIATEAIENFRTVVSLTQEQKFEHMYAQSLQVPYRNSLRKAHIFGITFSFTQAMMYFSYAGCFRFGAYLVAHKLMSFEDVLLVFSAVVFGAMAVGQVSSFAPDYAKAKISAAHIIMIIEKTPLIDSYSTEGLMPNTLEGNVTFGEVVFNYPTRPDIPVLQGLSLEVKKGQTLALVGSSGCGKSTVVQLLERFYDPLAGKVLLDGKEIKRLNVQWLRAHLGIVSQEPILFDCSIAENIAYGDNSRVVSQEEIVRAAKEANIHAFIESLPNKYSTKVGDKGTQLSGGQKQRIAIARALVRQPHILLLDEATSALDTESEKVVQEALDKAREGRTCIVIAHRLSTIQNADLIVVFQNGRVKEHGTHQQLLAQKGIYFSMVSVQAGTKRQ
- protocol_details: Inhibition of MDR-1 in human Caco-2 cells after 30 mins by calcein-AM dye based fluorescence assay
pIC50: −log10 of the molar value.
Below: a set of entries, each annotated with reported pIC50.
endpoint_label: pIC50

>  <compound>
CCOC(=O)C1=C(C)NC(C)=C(C(=O)OCC)C1c1c(-c2ccccc2Br)noc1C

>  <value>
< 5.00

$$$$
>  <compound>
CCOC(=O)C1=C(C)NC(C)=C(C(=O)OCc2cn(CCOCCOCCOCCOCCOCCn3cc(COC(=O)C4=C(C)NC(C)=C(C(=O)OCC)C4c4c(-c5ccccc5Br)noc4C)nn3)nn2)C1c1c(-c2ccccc2Br)noc1C (centres undefined)

>  <value>
5.54

$$$$
>  <compound>
CCOC(=O)c1c(C)nc(C)c(C(=O)OCC)c1-c1c(-c2ccccc2)noc1C

>  <value>
< 5.00

$$$$
>  <compound>
CCOC(=O)C1=C(C)NC(C)=C(C(=O)OCc2cn(CCOCCOCCOCCOCCOCCn3cc(COC(=O)C4=C(C)NC(C)=C(C(=O)OCC)C4c4c(-c5ccccc5)noc4C)nn3)nn2)C1c1c(-c2ccccc2)noc1C (centres undefined)

>  <value>
< 5.00

$$$$
